Target desc: EeAChE (Electrophorus electricus, UniProt O42275)
Sequence (O42275 24-633): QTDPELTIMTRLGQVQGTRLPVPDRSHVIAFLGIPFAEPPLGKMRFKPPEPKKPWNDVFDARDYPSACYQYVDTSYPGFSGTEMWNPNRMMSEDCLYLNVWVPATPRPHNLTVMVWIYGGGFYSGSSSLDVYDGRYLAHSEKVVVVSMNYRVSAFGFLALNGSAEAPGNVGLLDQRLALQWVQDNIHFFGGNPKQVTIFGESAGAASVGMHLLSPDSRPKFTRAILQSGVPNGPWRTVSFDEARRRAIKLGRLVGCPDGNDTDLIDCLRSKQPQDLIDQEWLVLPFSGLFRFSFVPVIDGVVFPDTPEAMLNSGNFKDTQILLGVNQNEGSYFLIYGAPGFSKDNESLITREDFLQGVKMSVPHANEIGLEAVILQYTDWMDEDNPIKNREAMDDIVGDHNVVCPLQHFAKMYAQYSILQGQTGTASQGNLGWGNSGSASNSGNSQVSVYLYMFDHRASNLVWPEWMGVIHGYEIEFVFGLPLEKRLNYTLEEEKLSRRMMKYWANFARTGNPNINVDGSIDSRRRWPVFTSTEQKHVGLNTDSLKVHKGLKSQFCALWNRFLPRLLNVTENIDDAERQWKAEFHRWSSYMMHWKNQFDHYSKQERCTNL
Assay notes: AChE inhibition assay
Assay type: biochemical
Endpoint: IC50 (µM)
Unit µM implied. Number only.

For the record "[H]/N=C(/N)NN=C(/C=C/c1ccccc1)c1cccn1Cc1ccc(F)cc1C(F)(F)F" , what value of IC50 is listed for EeAChE (Electrophorus electricus, UniProt O42275)?
57.1

Lab note: need IC50 for "[H]/N=C(/N)NN=C(/C=C/c1ccccc1Cl)c1cccn1Cc1ccccc1" on EeAChE (Electrophorus electricus, UniProt O42275), anyone have it?
174

Query IC50 on EeAChE (Electrophorus electricus, UniProt O42275) for "[H]/N=C(/N)NN=C(/C=C/c1ccc(OC)c(OC)c1)c1cccn1Cc1ccccc1"
146

Fill in the recorded IC50 for this compound, with EeAChE (Electrophorus electricus, UniProt O42275) as test system: "[H]/N=C(/N)NN=C(/C=C/c1ccc([N+](=O)[O-])cc1)c1cccn1Cc1ccccc1"
43.3

State its IC50 on EeAChE (Electrophorus electricus, UniProt O42275): "[H]/N=C(/N)NN=C(/C=C/c1ccccc1)c1cccn1Cc1cc(F)ccc1C"
80.1

Request body: readout IC50, system EeAChE (Electrophorus electricus, UniProt O42275), query "[H]/N=C(/N)NN=C(/C=C/c1ccccc1)c1cccn1Cc1ccccc1" . Return the value.
215

Could you share what IC50 was measured for "[H]/N=C(/N)NN=C(/C=C/c1ccccc1)c1cccn1Cc1cc(OC)cc(OC)c1" , tested on EeAChE (Electrophorus electricus, UniProt O42275)?
231

Form entry - test system: EeAChE (Electrophorus electricus, UniProt O42275); read-out: IC50; compound: "[H]/N=C(/N)NN=C(/C=C/c1ccccn1)c1cccn1Cc1ccccc1"
95.6

Measured values drawn from paper PMC11341970 for this set.
